Where do the numbers come from? From ChEMBL document CHEMBL1955833.

# Tested on: H9
# Protocol text: Cardiogenic activity in human H9 cells after 14 days by MYH6-mCherry reporter gene assay relative to 4-[(1R,2S,6R,7S)-3,5-dioxo-4-azatricyclo[5.2.1.0~2,6~]dec-8-en-4-yl]-N-quinolin-8-ylbenzamide
# Type: functional
Readout name: Activity

Some compounds with known Activity results, for comparison:
> print(dat)
                            compound.smiles        endpoint.result
1  COc1ccccc1NC(=O)c1ccc(N2C(=O)[C@@H]3[C@@H]4CC[C@@H](C4)[C@@H]3C2=O)cc1                     8%
2  O=C1[C@@H]2[C@@H]3CC[C@@H](C3)[C@@H]2C(=O)N1[C@H]1CC[C@H](C(=O)Nc2cccc3cccnc23)CC1                   145%
3  O=C1c2ccccc2-c2cccc(NC(=O)[C@H]3CC[C@H](N4C(=O)[C@@H]5[C@@H]6CC[C@@H](C6)[C@@H]5C4=O)CC3)c21  Dose-dependent effect
4  COC(=O)c1ccccc1NC(=O)[C@H]1CC[C@H](N2C(=O)[C@@H]3[C@@H]4CC[C@@H](C4)[C@@H]3C2=O)CC1  Dose-dependent effect

Input "O=C1[C@@H]2[C@@H]3CC[C@@H](C3)[C@@H]2C(=O)N1[C@H]1CC[C@H](C(=O)Nc2nccc3ccccc23)CC1" . Output Activity: Dose-dependent effect

Input "O=C1[C@@H]2[C@@H]3CC[C@@H](C3)[C@@H]2C(=O)N1[C@H]1CC[C@H](C(=O)Nc2cncc3ccccc23)CC1" . Output Activity: Dose-dependent effect

* * *

# Tested on: HEK-293T
# Protocol text: Cytotoxicity against human HEK293T cells at 0.2 to 20 uM after 24 hrs by alamar blue assay
# Type: cell-based
Readout name: Activity

Some compounds with known Activity results, for comparison:
> print(dat)
                            compound.smiles  assay.system  endpoint.result
1  Cc1cc(/C=C/c2ccc3cc(N(C)C)ccc3[n+]2C)c(C)n1-c1ccccc1      HEK-293T            Toxic
2  Cc1ccc2nc(NC(=O)CSc3nc4c(c(=O)n3-c3ccc(F)cc3)SCC4)sc2c1      HEK-293T        Non-toxic
3  O=C(Nc1cccc2cccnc12)c1ccc(N2C(=O)[C@@H]3[C@H](C2=O)[C@@H]2C=C[C@H]3C2)cc1      HEK-293T        Non-toxic
4  COc1ccc(/C=C2/SC(=S)N(CCCC(=O)O)C2=O)cc1OC      HEK-293T        Non-toxic

Continue with the compound presented below.
Bench note, HEK-293T: "Oc1nc(-c2ccc(C(F)(F)F)cc2)nc2c1CSCC2" , Activity reads Non-toxic

* * *

# Protocol text: Inhibition of beta-catenin-dependent canonical Wnt3A pathway in human HEK293T cells at 1 uM by luciferase reporter gene assay
# Assay type: cell-based
# Condition description: HEK-293T
Record YES whenever inhibition is at 80% or higher; record NO when lower.

> print(dat)
                                   compound  group
1  O=C1[C@@H]2[C@@H]3CC[C@@H](C3)[C@@H]2C(=O)N1[C@H]1CC[C@H](C(=O)Nc2cccnc2)CC1    YES
2  O=C1[C@@H]2[C@@H]3CC[C@@H](C3)[C@@H]2C(=O)N1[C@H]1CC[C@H](C(=O)Nc2cncc(O)c2)CC1    YES
3  O=C1[C@@H]2[C@@H]3CC[C@@H](C3)[C@@H]2C(=O)N1[C@H]1CC[C@H](C(=O)Nc2nccc3ccccc23)CC1    YES

Kindly determine if inhibition recorded for "O=C(Nc1cccc2cccnc12)c1ccc(N2C(=O)[C@@H]3[C@@H]4CC[C@@H](C4)[C@@H]3C2=O)cc1" is above or exactly 80%. YES

Kindly determine if inhibition recorded for "O=C(Nc1ccc(N2C(=O)[C@@H]3[C@@H]4CC[C@@H](C4)[C@@H]3C2=O)cc1)c1cccc2cccnc12" is above or exactly 80%. YES

Kindly determine if inhibition recorded for "COC(=O)c1ccccc1NC(=O)[C@H]1CC[C@H](N2C(=O)[C@@H]3[C@@H]4CC[C@@H](C4)[C@@H]3C2=O)CC1" is above or exactly 80%. YES

* * *

# Protocol text: Inhibition of beta-catenin-dependent canonical Wnt3A pathway in human HEK293T cells at 1 uM by luciferase reporter gene assay
# Format: cell-based
# Condition description: HEK-293T
Readout name: inhibition
Output should be the measured figure followed by the unit it is expressed in.

Some molecules with known inhibition results, for comparison:
> print(dat)
                            compound.smiles  readout.name  endpoint.result
1  O=C1[C@@H]2[C@@H]3CC[C@@H](C3)[C@@H]2C(=O)N1[C@H]1CC[C@@H](C(=O)Nc2cccc3cccnc23)CC1    inhibition              90%
2  O=C1[C@@H]2[C@@H]3CC[C@@H](C3)[C@@H]2C(=O)N1c1ccc(CNc2cccc3cccnc23)cc1    inhibition              45%
3  CC(=O)c1ccc(NC(=O)c2ccc(N3C(=O)[C@@H]4[C@@H]5CC[C@@H](C5)[C@@H]4C3=O)cc2)cc1    inhibition              41%
4  O=C(Nc1cccc2cccnc12)c1cccc(N2C(=O)[C@@H]3[C@@H]4CC[C@@H](C4)[C@@H]3C2=O)c1    inhibition               0%

Input "CC(=O)c1ccccc1NC(=O)[C@H]1CC[C@H](N2C(=O)[C@@H]3[C@@H]4CC[C@@H](C4)[C@@H]3C2=O)CC1" . Output inhibition: 91%

Input "COc1ccccc1NC(=O)c1ccc(N2C(=O)[C@@H]3[C@@H]4CC[C@@H](C4)[C@@H]3C2=O)cc1" . Output inhibition: 84%

Input "O=C1[C@@H]2[C@@H]3CC[C@@H](C3)[C@@H]2C(=O)N1[C@H]1CC[C@H](C(=O)Nc2cccnc2Cl)CC1" . Output inhibition: 13%

* * *

# Test system: H9
# Protocol text: Cardiogenic activity in human H9 cells after 14 days by MYH6-mCherry reporter gene assay relative to 4-[(1R,2S,6R,7S)-3,5-dioxo-4-azatricyclo[5.2.1.0~2,6~]dec-8-en-4-yl]-N-quinolin-8-ylbenzamide
# Format: functional
Readout name: Activity

> print(dat)
                                   molecule        endpoint.result
1  O=C(Nc1cccc2cccnc12)c1ccc(N2C(=O)C3C(C2=O)[C@H]2CC[C@@H]3O2)cc1 (some centres not stated)                     2%
2  O=C1[C@@H]2[C@@H]3CC[C@@H](C3)[C@@H]2C(=O)N1[C@H]1CC[C@H](C(=O)Nc2cncc(O)c2)CC1  Dose-dependent effect
3  CC(=O)c1ccc(NC(=O)[C@H]2CC[C@H](N3C(=O)[C@@H]4[C@@H]5CC[C@@H](C5)[C@@H]4C3=O)CC2)cn1                     3%
4  CC(=O)c1ncccc1NC(=O)[C@H]1CC[C@H](N2C(=O)[C@@H]3[C@@H]4CC[C@@H](C4)[C@@H]3C2=O)CC1                   145%
5  COc1cc(Br)ccc1NC(=O)[C@H]1CC[C@H](N2C(=O)[C@@H]3[C@@H]4CC[C@@H](C4)[C@@H]3C2=O)CC1  Dose-dependent effect
6  CC(=O)c1ccccc1NC(=O)[C@H]1CC[C@H](N2C(=O)[C@@H]3[C@@H]4CC[C@@H](C4)[C@@H]3C2=O)CC1                    78%

Continue with the molecule presented below.
Bench note, H9: "N#Cc1ccc(NC(=O)c2ccc(N3C(=O)[C@@H]4[C@@H]5CC[C@@H](C5)[C@@H]4C3=O)cc2)cc1" , Activity reads 1%

* * *

# Test system: H9
# Protocol text: Cardiogenic activity in human H9 cells after 14 days by MYH6-mCherry reporter gene assay relative to 4-[(1R,2S,6R,7S)-3,5-dioxo-4-azatricyclo[5.2.1.0~2,6~]dec-8-en-4-yl]-N-quinolin-8-ylbenzamide
# Type: functional
Readout name: Activity

Some molecules with known Activity results, for comparison:
> print(dat)
                            compound.smiles  assay.system        endpoint.result
1  O=C1[C@@H]2[C@@H]3CC[C@@H](C3)[C@@H]2C(=O)N1[C@H]1CC[C@H](C(=O)Nc2ccccn2)CC1            H9                     3%
2  O=C1[C@@H]2[C@@H]3CC[C@@H](C3)[C@@H]2C(=O)N1[C@H]1CC[C@@H](C(=O)Nc2cccc3cccnc23)CC1            H9  Dose-dependent effect
3  O=C1[C@@H]2[C@@H]3CC[C@@H](C3)[C@@H]2C(=O)N1[C@H]1CC[C@H](C(=O)Nc2cccnc2Cl)CC1            H9  Dose-dependent effect
4  CC(=O)c1ccccc1NC(=O)[C@H]1CC[C@@H](N2C(=O)[C@@H]3[C@@H]4CC[C@@H](C4)[C@@H]3C2=O)CC1            H9  Dose-dependent effect

Input "O=C1CCCc2cccc(NC(=O)[C@H]3CC[C@H](N4C(=O)[C@@H]5[C@@H]6CC[C@@H](C6)[C@@H]5C4=O)CC3)c21" . Output Activity: 176%

Input "O=C(Nc1cccc2cccnc12)c1ccc(N2C(=O)[C@@H]3[C@H]4CC[C@H](CC4)[C@@H]3C2=O)cc1" . Output Activity: 2%
